# Tested on: SNB-75 CNS
# assay.notes: NCI tumour cell line growth inhibition, 48 h
The reader will find reported TGI values listed item by item below.

{"compound": "COc1ccc(-c2nn(-c3cccc(NC(=O)c4ccc5c(c4)OCCO5)c3)cc2-c2ccncc2)cc1Cl", "test.system": "SNB-75 CNS", "TGI": "3.5 µM"}
{"compound": "CCCCCCCCCCCCCCCC(=O)OCC1CCCN2CCCCC12 (centres undefined)", "test.system": "SNB-75 CNS", "TGI": "> 100 µM"}
{"compound": "CCOC(=O)C(C)(C(=O)OCC)/C(Cl)=C\\Cl", "test.system": "SNB-75 CNS", "TGI": "> 100 µM"}
{"compound": "CN(C)c1ccc(/C=C(\\C#N)c2nc3ccccc3n2C)cc1", "test.system": "SNB-75 CNS", "TGI": "> 31.3 µM"}
{"compound": "O=C(O)CCC(=O)c1ccc2ccc3cccc4ccc1c2c34", "test.system": "SNB-75 CNS", "TGI": "> 100 µM"}

// query TGI value for entry C=CCC(CC=O)(C(=O)OCC)C(=O)OCC
> 100 µM

// query TGI value for entry O=C(NNc1ccnc2cc(Cl)ccc12)/C(=C\c1ccccc1Cl)NC(=O)c1ccccc1
> 100 µM

// query TGI value for entry CCOC(=O)CC1(O)CCCCC1(Sc1ccc(C)cc1)Sc1ccc(C)cc1 (centres undefined)
> 100 µM

// query TGI value for entry COc1ccc(N=Nc2c(-c3ccccc3)nn(C(=O)CC(=O)Nc3cccc(Cl)c3)c2-c2ccccc2)cc1
> 100 µM

// query TGI value for entry O=C(Nc1ccc(Oc2ccc3nc(NC(=O)c4ccccc4)[nH]c3c2)cc1)Nc1cc(C(F)(F)F)ccc1F
10 µM

// query TGI value for entry O=c1cc(N2CCNCC2)oc2c(-c3ccccc3)cccc12
75 µM

// query TGI value for entry Cc1nn(C(=O)c2ccc(Cl)cc2)c2c1C(c1cccc([N+](=O)[O-])c1)SC(N)=N2 (centres undefined)
> 10 µM

// query TGI value for entry Cc1ccc(C[P+]2(c3ccccc3)CCCCC2)cc1
76.9 µM

// query TGI value for entry O=C1N(c2ccccc2)C(=O)C2(SC=NN2Cc2ccccc2)N1c1ccccc1 (centres undefined)
> 100 µM

----------
The reader will find reported TGI values listed item by item below.
# Test system: CCRF-CEM leukemia
# assay.notes: NCI tumour cell line growth inhibition, 48 h

Example cases with answers are listed next.
{"molecule": "O=C(Nc1cccc(Oc2nnc(Cl)c3ccccc23)c1)Nc1ccc(Cl)c(C(F)(F)F)c1", "result": "17.5 µM"}
{"molecule": "O=c1[nH]c(=O)n(C2OC(CO)C(O)C2O)c2ccsc12 (stereo unspecified)", "result": "> 100 µM"}

Consider the additional molecule presented here.
// query TGI value for entry CCCc1c[nH]c(-c2ccc(-c3cc(CCC)c(C=O)[nH]3)s2)c1
91.4 µM

----------
# System: IGROV1 ovarian
# assay.notes: NCI tumour cell line growth inhibition, 48 h; in the data active = GI50 below about 0.43 µM; inactive = the rest
The reply should name one outcome from 1 for active, 0 for inactive

{"molecule": "COc1cc2nccc(Oc3ccc(NC(=O)C4(C(=O)Nc5ccc(F)cc5)CC4)cc3)c2cc1Oc1ccc(N)cn1", "test.system": "IGROV1 ovarian", "category.label": 0}

Recorded test call requested for CN(C)c1ncnc2c1nnn2C1OC(CO)C(O)C1O (stereo unspecified)
1

Recorded test call requested for CC/C=C\C/C=C\C[C@H](O)C/C=C1/C(=O)C=C[C@@H]1C/C=C\CCCC(=O)O
0

Recorded test call requested for CCOC(=O)C1=C(C)NC2SC(=O)/C(=C\c3ccccc3O)N2C1c1ccccc1 (stereo unspecified)
0

Recorded test call requested for Cn1c(O)c(C(/C=C/c2ccccc2)=NCCN=C(/C=C/c2ccccc2)c2c(O)n(C)c(=O)n(C)c2=O)c(=O)n(C)c1=O
0

Recorded test call requested for CO/N=C(\C)c1cccc(Nc2cc(-c3ccccc3)nc3c(O)cccc23)c1
0
